Entries and their body Weight (g) After ad. values follow.
Test: Body weight of S180 sarcoma-bearing mice
Settings: mouse, in vivo, iv
Number only, in g; omit the unit.

Worked examples follow.
MOLECULE	body Weight (g) After ad.
O=c1[nH]cc(F)c(=O)[nH]1 [Compound 5-FU, 5-fluorouracil, reference compound]	28.55
COC(=O)/C(C)=C\CC12OC(C)(C)[C@H]3C[C@@H](C=C4C(=O)c5c(OC(=O)c6ccc(O[C@@H]7O[C@@H]8COC(C)(C)O[C@H]8[C@H](O)[C@H]7O)cc6)c6c(c(CC=C(C)C)c5OC431)OC(C)(CCC=C(C)C)C=C6)C2=O (some centres unmarked)	27.39
COC(=O)/C(C)=C\CC12OC(C)(C)C3CC(C1=O)C1C4=C(Nc5nccn51)c1c(O)c5c(c(CC=C(C)C)c1OC432)OC(C)(CCC=C(C)C)C=C5 (centres unmarked)	23.58

The reported value for COC(=O)/C(C)=C\CC12OC(C)(C)C3CC(C1=O)C1C4=C(Nc5nc6ccccc6n51)c1c(O)c5c(c(CC=C(C)C)c1OC432)OC(C)(CCC=C(C)C)C=C5 (centres unmarked) in terms of body Weight (g) After ad. is 25.12

The reported value for COC(=O)/C(C)=C\CC12OC(C)(C)C3CC(C1=O)C1C4=C(c5ccccc5C4=O)N(CCN)C4=C1C32Oc1c(CC=C(C)C)c2c(c(O)c14)C=CC(C)(CCC=C(C)C)O2 (centres unmarked) in terms of body Weight (g) After ad. is 25.77

The reported value for COC(=O)/C(C)=C\CC12OC(C)(C)C3CC(C1=O)C(N1CCOCC1)C1C(=O)c4c(OC(=O)CCl)c5c(c(CC=C(C)C)c4OC132)OC(C)(CCC=C(C)C)C=C5 (centres unmarked) in terms of body Weight (g) After ad. is 27.59

The reported value for COC(=O)/C(C)=C\CC12OC(C)(C)C3CC(C1=O)C1C4=C(Nc5nccn51)c1c(O[C@H]5O[C@@H](CO)[C@H](O)[C@@H](O)[C@@H]5O)c5c(c(CC=C(C)C)c1OC432)OC(C)(CCC=C(C)C)C=C5 (some centres unmarked) in terms of body Weight (g) After ad. is 27.61

The reported value for COC(=O)/C(C)=C\CC12OC(C)(C)C3CC(C1=O)C1C4=C(Nc5nccn51)c1c(OCCNCCO)c5c(c(CC=C(C)C)c1OC432)OC(C)(CCC=C(C)C)C=C5 (centres unmarked) in terms of body Weight (g) After ad. is 26.86

The reported value for COC(=O)/C(C)=C\CC12OC(C)(C)C3CC(C1=O)C1C4=C(c5ccccc5C4=O)N4CCNC45c4c(O)c6c(c(CC=C(C)C)c4OC32C15)OC(C)(CCC=C(C)C)C=C6 (centres unmarked) in terms of body Weight (g) After ad. is 26.98

The reported value for COC(=O)/C(C)=C\CC12OC(C)(C)C3CC(C=C4C(=O)c5c(OC(=O)CCC(=O)N6CCN(C)CC6)c6c(c(CC=C(C)C)c5OC431)OC(C)(CCC=C(C)C)C=C6)C2=O (centres unmarked) in terms of body Weight (g) After ad. is 26.30

The reported value for COC(=O)/C(C)=C\CC12OC(C)(C)C3CC(C1=O)C1C4=C(Nc5ncnn51)c1c(O)c5c(c(CC=C(C)C)c1OC432)OC(C)(CCC=C(C)C)C=C5 (centres unmarked) in terms of body Weight (g) After ad. is 27.37
